Values from ChEMBL document CHEMBL2384929

# Organism: Ovis aries
# experimental-protocol: Inhibition of sheep brain tubulin assembly at 100 uM by DAPI staining-based fluorescence assay
property-name: inhibition (%)

compound | property-name | obs-value
COc1cc(C(=O)c2cc(OC)c(OC)c(OC)c2)c(OC)cc1F | inhibition | 77
COc1cc(C(=O)c2cc(OC)c(O)c(OC)c2)c(OC)cc1F | inhibition | 48
COc1ccc(C(=O)c2ccc(OC)c(NC(C)=O)c2OC)cc1F | inhibition | 3
COc1cc([C@@H]2c3cc4c(cc3C[C@H]3COC(=O)[C@@H]32)OCO4)cc(OC)c1OC [DESOXYPODOPHYLLOTOXIN] | inhibition | 100
COc1ccc(C(=O)c2cc(F)c(F)c(OC)c2F)cc1OC(=O)CCl | inhibition | 46
COc1ccc(C(=O)c2cc(F)c(F)c(OC)c2F)c(O)c1O | inhibition | 93
COc1ccc(C(=O)c2ccc(OC)c(N)c2OC)cc1F | inhibition | 45
C=C(c1cc(OC)c(OC)c(OC)c1)c1cc(OC)c(F)cc1OC | inhibition | 44
COc1ccc(C(=O)c2cc(F)c(F)c(OC)c2F)cc1O | inhibition | 88
COc1ccc(C(=O)c2cc(OC)c(OC)c(OC)c2)cc1O [PHENSTATIN] | inhibition | 99

* * *

# Tested on: BT-549
# experimental-protocol: Cytotoxicity against human BT549 cells assessed as growth inhibition after 48 hrs by SRB assay
# Assay type: functional
# measurement-conditions: BT-549, 48 h
Measured GI50, listed per entry.

cpd-smiles | target-under-test | GI50 / µM
COc1ccc(C(=O)c2cc(F)c(F)c(OC)c2F)c(OC)c1N | BT-549 | 34.1
C=C(c1ccc(OC)c(O)c1)c1cc(F)c(F)c(OC)c1F | BT-549 | 0.061
COc1ccc(C(=O)c2cc(F)c(F)c(OC)c2F)cc1O | BT-549 | 3.13
C=C(c1cc(OC)c(OC)c(OC)c1)c1cc(OC)c(F)cc1OC | BT-549 | 4.12
COc1cc(C(=O)c2cc(OC)c(OC)c(OC)c2)c(OC)cc1F | BT-549 | 0.365

* * *

# experimental-protocol: Inhibition of sheep brain tubulin assembly by DAPI staining-based fluorescence assay
# Set-up: species or system Ovis aries
property-name: log10 of IC50 (log10 of the value in µM)

molecule | obs-value
COc1cc(C(=O)c2cc(OC)c(OC)c(OC)c2)c(OC)cc1F | 1.38
COc1cc([C@@H]2c3cc4c(cc3C[C@H]3COC(=O)[C@@H]32)OCO4)cc(OC)c1OC [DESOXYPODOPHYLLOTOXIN] | 0.25
COc1ccc(C(=O)c2cc(OC)c(OC)c(OC)c2)cc1O [PHENSTATIN] | 0.54
COc1ccc(C(=O)c2cc(F)c(F)c(OC)c2F)c(O)c1O | 1.47
COc1ccc(C(=O)c2cc(OC)c(OC)c(OC)c2N)cc1F | 0.30
COc1ccc(C(=O)c2cc(F)c(F)c(OC)c2F)cc1O | 1.45
COc1ccc(C(=O)c2cc(F)c(F)c(OC)c2F)c(OC)c1N | 1.47
C=C(c1ccc(OC)c(O)c1)c1cc(F)c(F)c(OC)c1F | 1.63

* * *

# System: Hs-578T
# experimental-protocol: Cytotoxicity against human Hs578T cells assessed as growth inhibition after 48 hrs by SRB assay
# Assay type: functional
Kindly apply the following: class 1 if GI50 is less than 200 nM, class 0 in every other case.

cpd-smiles | category
C=C(c1ccc(OC)c(O)c1)c1cc(F)c(F)c(OC)c1F | class 1
COc1ccc(C(=O)c2cc(F)c(F)c(OC)c2F)c(OC)c1N | class 0
C=C(c1cc(OC)c(OC)c(OC)c1)c1cc(OC)c(F)cc1OC | class 0
COc1ccc(C(=O)c2cc(F)c(F)c(OC)c2F)cc1O | class 0

* * *

# Test system: MDA-MB-435
# experimental-protocol: Cytotoxicity against human MDA-MB-435 cells assessed as growth inhibition after 48 hrs by SRB assay
# Format: functional
# measurement-conditions: MDA-MB-435, 48 h
property-name: GI50 (nM)

cpd-smiles | target-under-test | property-name | obs-value
COc1cc(C(=O)c2cc(OC)c(OC)c(OC)c2)c(OC)cc1F | MDA-MB-435 | GI50 | 25
C=C(c1ccc(OC)c(O)c1)c1cc(F)c(F)c(OC)c1F | MDA-MB-435 | GI50 | 19
COc1ccc(C(=O)c2cc(F)c(F)c(OC)c2F)c(OC)c1N | MDA-MB-435 | GI50 | 407
C=C(c1cc(OC)c(OC)c(OC)c1)c1cc(OC)c(F)cc1OC | MDA-MB-435 | GI50 | 260
COc1ccc(C(=O)c2cc(F)c(F)c(OC)c2F)cc1O | MDA-MB-435 | GI50 | 285

* * *

# System: SR
# experimental-protocol: Cytotoxicity against human SR cells assessed as growth inhibition at 10 uM after 48 hrs by SRB assay
# Assay type: functional
# measurement-conditions: read-out: GI

compound | measurement-unit | inhibition of growth at 10 µM
COc1cc(C(=O)c2cc(OC)c(O)c(OC)c2)c(OC)cc1F | % | 22
COc1ccc(C(=O)c2cc(F)c(F)c(OC)c2F)c(OC)c1NC(C)=O | % | 49
COc1ccc(C(O)c2cc(F)c(F)c(OC)c2F)cc1O (centres undefined) | % | 33
COc1ccc(C(=O)c2ccc(OC)c(N)c2OC)cc1F | % | 61

* * *

# Organism: Ovis aries
# experimental-protocol: Inhibition of sheep brain tubulin assembly at 100 uM by DAPI staining-based fluorescence assay

compound | inhibition, %
C=C(c1ccc(OC)c(O)c1)c1cc(F)c(F)c(OC)c1F | 77
COc1ccc(C(=O)c2cc(F)c(F)c(OC)c2F)c(OC)c1NC(C)=O | 39
COc1ccc(C(=O)c2cc(F)c(F)c(OC)c2F)c(OC)c1N | 89
COc1ccc(C(O)c2cc(F)c(F)c(OC)c2F)cc1O (centres undefined) | 49

* * *

# Tested on: PC-3
# experimental-protocol: Cytotoxicity against human PC3 cells assessed as growth inhibition after 48 hrs by SRB assay
# Type: functional
# measurement-conditions: PC-3, 48 h
Measured GI50, listed per entry.
property-name: GI50 (nM)

cpd-smiles | property-name | measurement-unit | obs-value
COc1ccc(C(=O)c2cc(F)c(F)c(OC)c2F)c(OC)c1N | GI50 | nM | 10200
C=C(c1ccc(OC)c(O)c1)c1cc(F)c(F)c(OC)c1F | GI50 | nM | 140
COc1cc(C(=O)c2cc(OC)c(OC)c(OC)c2)c(OC)cc1F | GI50 | nM | 207
C=C(c1cc(OC)c(OC)c(OC)c1)c1cc(OC)c(F)cc1OC | GI50 | nM | 2240
COc1ccc(C(=O)c2cc(F)c(F)c(OC)c2F)cc1O | GI50 | nM | 3720

* * *

# System: NCI-H460
# experimental-protocol: Cytotoxicity against human NCI-H460 cells assessed as growth inhibition after 48 hrs by SRB assay
# Format: functional
# measurement-conditions: NCI-H460, 48 h
property-name: log10 of GI50 (log10 of the value in nM)

cpd-smiles | log10 of GI50
C=C(c1cc(OC)c(OC)c(OC)c1)c1cc(OC)c(F)cc1OC | 3.09
C=C(c1ccc(OC)c(O)c1)c1cc(F)c(F)c(OC)c1F | 2.54
COc1ccc(C(=O)c2cc(F)c(F)c(OC)c2F)cc1O | 3.35
COc1ccc(C(=O)c2cc(F)c(F)c(OC)c2F)c(OC)c1N | 3.48
COc1ccc(C(=O)c2cc(OC)c(OC)c(OC)c2)cc1O | 0.78
COc1cc(C(=O)c2cc(OC)c(OC)c(OC)c2)c(OC)cc1F | 2.06
